System: Staphylococcus aureus ATCC29213
assay method text: microbe, parasite or virus in culture
Format: cell-based
condition details: Table 4; two tests, first/second value where not identical
No end group written: not given here.

- substance: "GRLKRMGERLKRKIQKLIRL-NH2 [SRP-21]"
  MIC Staphylococcus aureus: "8/32"
- substance: "Ac-GRLKRMGKRLKRKIQKWARW-NH2 [SRP-18]"
  MIC Staphylococcus aureus: "8/16"
- substance: "RLKRMRKRLKRKLRLW-NH2 [SRP-17]"
  MIC Staphylococcus aureus: "16/32"
- substance: "MLKLIFLHRLKRMRKRLKRKLR-NH2 [SRP-9]"
  MIC Staphylococcus aureus: "16/32"
